Reference source: patent US20250282868A1

# System Tested: T1, human TREM2 (human, UniProt Q9NZC2 19-230)
# T1 sequence: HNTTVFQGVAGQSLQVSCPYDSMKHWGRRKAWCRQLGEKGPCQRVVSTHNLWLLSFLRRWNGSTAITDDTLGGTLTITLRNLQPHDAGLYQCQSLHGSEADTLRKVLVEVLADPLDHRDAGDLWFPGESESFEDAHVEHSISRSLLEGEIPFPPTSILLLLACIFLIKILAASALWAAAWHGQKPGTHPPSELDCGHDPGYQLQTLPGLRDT
# Measurement Description: cell-based or functional assay
Give Fold over isotype control at 66 nM for every item shown.

The reported Fold over isotype control at 66 nM of the binder EOS006166 (antibody, V domains shown) VH: EVQLVESGGGLVQPGRSLRLSCTASGFTFGDYAMSWFRQAPGKGLEWVGFIGSKAYGGTTEYTASVKGRFTISRDGSKSIAYLQMNSLKTEDTAVYYCARGKRYSYGYWHPAFDVWGQGTMVTVSS VL: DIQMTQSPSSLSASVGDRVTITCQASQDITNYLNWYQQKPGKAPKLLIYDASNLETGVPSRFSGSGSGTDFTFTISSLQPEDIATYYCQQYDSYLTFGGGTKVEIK was 1.75 fold

Value of measured Fold over isotype control at 66 nM for the entry EOS006165 (antibody, V domains shown) VH: QVQLVQSGAEVKKPGSSVKVSCKASGGTFSSYAISWVRQAPGQGLEWMGGIIPISGTANYAQKFQGRVTITADESTSTAYMELSSLRSEDTAVYYCARTQEYTAFDIWGQGTMVTVSS VL: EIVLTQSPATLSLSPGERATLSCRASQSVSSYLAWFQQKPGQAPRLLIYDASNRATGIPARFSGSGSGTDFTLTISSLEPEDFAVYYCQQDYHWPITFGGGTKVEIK : 1.03 fold

The reported value for EOS006174 (antibody, V domains shown) VH: EVQLVESGGGLVQPGRSLRLSCTASGFTFGEYTMSWFRQAPGKGLEWVGFIGSKAYAGTTEYTASVKGRFTISRDGSKSIAYLQMNSLKTEDTAVYYCARGKRYSYGGWVPAFDVWGQGTMVTVSS VL: DIQMTQSPSSLSASVGDRVTITCQASQDITNYLNWYQQKPGKAPKLLIYDASNLETGVPSRFSGSGSGTDFTFTISSLQPEDIATYYCQEYDSYLAFGGGTKVEIK in terms of Fold over isotype control at 66 nM is 0.897 fold
